Attribute: IC50
# Subject of test: Peroxisome proliferator-activated receptor delta (Homo sapiens)
# Sequence (Q03181 whole entry): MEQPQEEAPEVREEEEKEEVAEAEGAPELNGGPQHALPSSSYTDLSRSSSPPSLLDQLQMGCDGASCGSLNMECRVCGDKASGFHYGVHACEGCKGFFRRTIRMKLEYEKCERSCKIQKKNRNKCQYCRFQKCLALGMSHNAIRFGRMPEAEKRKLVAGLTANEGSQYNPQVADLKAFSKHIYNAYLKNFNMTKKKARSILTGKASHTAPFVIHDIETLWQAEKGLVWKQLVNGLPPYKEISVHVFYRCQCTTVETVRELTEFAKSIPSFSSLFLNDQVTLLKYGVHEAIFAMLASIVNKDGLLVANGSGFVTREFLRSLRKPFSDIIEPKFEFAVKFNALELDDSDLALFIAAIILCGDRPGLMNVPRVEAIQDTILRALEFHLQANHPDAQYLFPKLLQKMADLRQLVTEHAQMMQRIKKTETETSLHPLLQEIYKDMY

CCCc1cc(OC2CCCCCC2)ccc1OCCCOc1cccc(C2SC(=O)NC2=O)c1 (centres undefined)    > 50 µM
CCCc1cc(C2CCCC2)ccc1OCCCOc1cccc(C2OC(=O)NC2=O)c1 (centres undefined)    3.85 µM
CCCc1cc(C2CCC(C)(C)CC2)ccc1OCCCOc1cccc(C2OC(=O)NC2=O)c1 (centres undefined)    > 50 µM
CCCc1cc(C2CCOCC2)ccc1OCCCOc1cccc(C2OC(=O)NC2=O)c1 (centres undefined)    > 50 µM
CCCc1cc(-c2ccccc2)ccc1OCCCOc1cccc(C2OC(=O)NC2=O)c1 (centres undefined)    1.51 µM

Query: Returns the measured IC50 for the input compound. Input: CCCc1cc(C(=O)C2CCCCC2)ccc1OCCCOc1cccc(C2SC(=O)NC2=O)c1 (centres undefined)
Result: > 50 µM

Query: Also, CCCc1cc(C(=O)c2ccc(Cl)cc2)ccc1OCCCOc1cccc(C2SC(=O)NC2=O)c1 (centres undefined) please.
Result: > 50 µM

Query: Also, CCCc1cc(C2CCC(O)CC2)ccc1OCCCOc1cccc(C2OC(=O)NC2=O)c1 (centres undefined) please.
Result: > 50 µM

Query: Also, CCCc1cc(C2CCCCCC2)ccc1OCCCOc1cccc(C2OC(=O)NC2=O)c1 (centres undefined) please.
Result: > 50 µM

###

# Subject of test: Peroxisome proliferator-activated receptor delta (Homo sapiens, UniProt Q03181)
# Sequence (Q03181 whole entry): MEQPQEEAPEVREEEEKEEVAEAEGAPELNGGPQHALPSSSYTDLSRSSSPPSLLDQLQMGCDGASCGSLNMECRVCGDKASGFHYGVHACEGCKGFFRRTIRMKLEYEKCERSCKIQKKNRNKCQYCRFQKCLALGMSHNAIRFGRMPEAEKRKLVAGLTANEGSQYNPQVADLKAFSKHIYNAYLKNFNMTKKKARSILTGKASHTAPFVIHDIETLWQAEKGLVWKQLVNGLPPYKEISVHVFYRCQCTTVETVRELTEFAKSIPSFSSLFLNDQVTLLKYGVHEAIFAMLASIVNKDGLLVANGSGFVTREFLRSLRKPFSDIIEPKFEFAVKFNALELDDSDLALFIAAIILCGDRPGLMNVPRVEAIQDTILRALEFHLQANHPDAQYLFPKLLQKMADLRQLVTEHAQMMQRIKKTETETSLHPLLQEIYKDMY
Recorded metric: IC50

CCCc1cc(C2CCCCC2)ccc1OCCCOc1cccc(C2OC(=O)NC2=O)c1 (stereo not given)    > 50 µM
CCCc1cc(C=C2CCCCC2)ccc1OCCCOc1cccc(C2SC(=O)NC2=O)c1 (stereo not given)    > 50 µM
CCCc1cc(C2CCC(=O)CC2)ccc1OCCCOc1cccc(C2OC(=O)NC2=O)c1 (stereo not given)    > 50 µM
CCCc1cc(C2CCC(F)(F)CC2)ccc1OCCCOc1cccc(C2OC(=O)NC2=O)c1 (stereo not given)    > 50 µM

Now for the compound whose IC50 we want.
Query: Returns the measured IC50 for the input compound. Input: CCCc1cc(-c2noc3ccccc23)ccc1OCCCOc1cccc(C2SC(=O)NC2=O)c1 (stereo not given)
Result: 0.14 µM
